Data origin: PubChem BioAssay (NCI)

Overview of recorded growth inhibition for various molecules
Experiment: NCI Yeast Anticancer Drug Screen. Data for the mlh1 strain (AID 171);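 further: 0% = growth of vehicle-treated control cultures of the same strain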
Conditions: S. cerevisiae mlh1 strain growth inhibition; at 1.2 µM; hits give high values
The panel holds about 79,000 compounds, 15% with a hit somewhere; the sample as a whole holds those more often.
State just the number; it will be interpreted in %.

{"MOLECULE": "COC(=O)C1=C(C)NC(C)=C(C(=O)OCCCN2CCC(c3ccccc3)(c3ccccc3)CC2)C1c1cccc([N+](=O)[O-])c1 (centres undefined)", "RESULT UNITS": "%", "VALUE MEASURED": 1}
{"MOLECULE": "Cc1cc(CO)c(O)c(CNCc2cc(C)cc(CO)c2O)c1", "RESULT UNITS": "%", "VALUE MEASURED": -27}
{"MOLECULE": "Cc1cccc2c(C(O)CBr)cc(-c3ccc(Cl)cc3)nc12 (centres undefined)", "RESULT UNITS": "%", "VALUE MEASURED": -5}
{"MOLECULE": "OC1CCCc2c1cc1ccc3cccc4ccc2c1c34 (centres undefined)", "RESULT UNITS": "%", "VALUE MEASURED": -16}
{"MOLECULE": "N#CN=Nc1cc(Cl)c(N=NC#N)cc1Cl", "RESULT UNITS": "%", "VALUE MEASURED": 22}

Prompt: Sample C/C(=N\O)C1CC2C=C(C#N)C1N(Cc1ccccc1)C2 (centres undefined) — what was its growth inhibition?
Response: -3

Prompt: Quick one: growth inhibition of `COc1ccc(-c2cn(-c3ccc(I)cc3)c3ncnc(N)c23)cc1` ?
Response: -2

Prompt: Need growth inhibition of `N/C(=N\OC(=O)NC(Cl)=C(Cl)Cl)c1cc(C(F)(F)F)cc(C(F)(F)F)c1` , thanks.
Response: -27

Prompt: Requested read-out: growth inhibition. Entry: `Oc1ccc2ccccc2c1C(c1ccc(Cl)cc1)c1c(O)ccc2ccccc12`
Response: -41

Prompt: Find the recorded growth inhibition belonging to `O=C1C=CC(=O)c2c(O)c(Nc3ccc(OC(F)(F)F)cc3)c(Cl)c(O)c21` and report it.
Response: 0
